# testedOn: EGFR^WT (Homo sapiens, UniProt P00533)
# Sequence (P00533 25-1210): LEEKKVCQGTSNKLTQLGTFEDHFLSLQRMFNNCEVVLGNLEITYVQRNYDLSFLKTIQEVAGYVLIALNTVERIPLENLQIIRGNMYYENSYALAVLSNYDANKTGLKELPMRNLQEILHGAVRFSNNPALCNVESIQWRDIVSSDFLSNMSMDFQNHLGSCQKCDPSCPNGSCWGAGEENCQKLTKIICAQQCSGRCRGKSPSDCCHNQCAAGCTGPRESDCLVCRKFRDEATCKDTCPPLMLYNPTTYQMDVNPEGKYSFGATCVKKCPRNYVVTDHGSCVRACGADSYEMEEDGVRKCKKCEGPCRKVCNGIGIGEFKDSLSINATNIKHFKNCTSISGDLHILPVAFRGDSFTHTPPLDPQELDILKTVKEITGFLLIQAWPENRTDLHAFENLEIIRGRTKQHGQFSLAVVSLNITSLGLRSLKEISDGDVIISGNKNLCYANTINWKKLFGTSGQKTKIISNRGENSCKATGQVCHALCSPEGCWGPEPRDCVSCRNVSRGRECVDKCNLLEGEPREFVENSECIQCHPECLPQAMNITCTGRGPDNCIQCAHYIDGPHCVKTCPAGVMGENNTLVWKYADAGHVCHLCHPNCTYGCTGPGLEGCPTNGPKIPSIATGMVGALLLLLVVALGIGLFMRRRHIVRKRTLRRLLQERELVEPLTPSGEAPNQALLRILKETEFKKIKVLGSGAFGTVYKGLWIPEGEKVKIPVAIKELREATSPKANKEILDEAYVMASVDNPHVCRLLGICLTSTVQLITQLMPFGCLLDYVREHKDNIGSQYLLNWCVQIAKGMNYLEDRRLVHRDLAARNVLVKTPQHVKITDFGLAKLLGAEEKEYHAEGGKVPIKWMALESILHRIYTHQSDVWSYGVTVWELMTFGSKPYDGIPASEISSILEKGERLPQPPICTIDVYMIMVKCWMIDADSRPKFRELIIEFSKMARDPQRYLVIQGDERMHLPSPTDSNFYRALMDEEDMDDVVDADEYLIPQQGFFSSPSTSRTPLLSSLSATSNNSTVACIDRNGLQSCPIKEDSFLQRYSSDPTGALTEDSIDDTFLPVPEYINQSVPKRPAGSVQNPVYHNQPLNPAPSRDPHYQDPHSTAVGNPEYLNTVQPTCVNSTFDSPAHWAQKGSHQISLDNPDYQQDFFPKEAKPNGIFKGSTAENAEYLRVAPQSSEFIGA
pIC50: −log10 of the molar value.
endpoint: pIC50

[[record]]
compound = "Cc1ccc(NC(=O)Cn2c(=O)c3c(ncn3C)n(C)c2=O)cc1 [T-1-PMPA]"
datavalue = 7.07


----------
# testedOn: VEGFR-2 (Homo sapiens)
# Sequence (P35968 20-1356): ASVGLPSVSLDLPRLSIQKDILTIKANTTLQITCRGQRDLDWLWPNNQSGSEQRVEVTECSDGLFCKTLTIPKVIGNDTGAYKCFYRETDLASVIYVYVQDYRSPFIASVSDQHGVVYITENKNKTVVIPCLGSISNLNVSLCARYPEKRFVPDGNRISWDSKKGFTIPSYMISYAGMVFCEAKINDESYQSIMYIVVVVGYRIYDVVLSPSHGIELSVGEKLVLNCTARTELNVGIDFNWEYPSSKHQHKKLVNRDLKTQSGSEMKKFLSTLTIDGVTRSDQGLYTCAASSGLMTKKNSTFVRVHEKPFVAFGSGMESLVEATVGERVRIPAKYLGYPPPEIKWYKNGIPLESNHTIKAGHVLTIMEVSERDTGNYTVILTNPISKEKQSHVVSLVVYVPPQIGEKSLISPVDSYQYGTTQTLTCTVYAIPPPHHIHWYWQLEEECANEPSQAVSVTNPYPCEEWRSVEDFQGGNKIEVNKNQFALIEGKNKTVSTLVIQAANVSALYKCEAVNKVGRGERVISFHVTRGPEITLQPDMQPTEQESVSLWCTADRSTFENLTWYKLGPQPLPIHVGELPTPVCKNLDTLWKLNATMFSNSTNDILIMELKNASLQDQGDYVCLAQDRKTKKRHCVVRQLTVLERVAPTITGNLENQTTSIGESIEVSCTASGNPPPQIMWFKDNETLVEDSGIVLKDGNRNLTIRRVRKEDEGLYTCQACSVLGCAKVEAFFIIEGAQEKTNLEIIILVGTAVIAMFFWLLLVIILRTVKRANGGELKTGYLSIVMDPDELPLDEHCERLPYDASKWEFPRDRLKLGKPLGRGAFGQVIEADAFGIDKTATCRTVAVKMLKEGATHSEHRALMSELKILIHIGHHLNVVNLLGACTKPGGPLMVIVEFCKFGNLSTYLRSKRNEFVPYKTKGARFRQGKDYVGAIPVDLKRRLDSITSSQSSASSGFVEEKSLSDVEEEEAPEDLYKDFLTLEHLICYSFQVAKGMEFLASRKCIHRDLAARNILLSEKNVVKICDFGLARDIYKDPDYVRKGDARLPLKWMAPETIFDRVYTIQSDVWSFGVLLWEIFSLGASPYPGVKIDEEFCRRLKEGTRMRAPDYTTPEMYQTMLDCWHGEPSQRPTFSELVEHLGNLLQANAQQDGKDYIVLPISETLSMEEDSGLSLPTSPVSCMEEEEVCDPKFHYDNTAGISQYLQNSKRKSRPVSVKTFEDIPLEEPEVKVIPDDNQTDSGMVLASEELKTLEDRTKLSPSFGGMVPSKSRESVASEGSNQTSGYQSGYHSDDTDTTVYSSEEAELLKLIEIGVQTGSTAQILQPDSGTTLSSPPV
endpoint: IC50 (nM)

[[record]]
chemsmiles = "Cc1ccc(NC(=O)Cn2c(=O)c3c(ncn3C)n(C)c2=O)cc1"
valueunits = "nM"
datavalue = 2070


----------
# testedOn: EGFR^T790M (Homo sapiens, UniProt P00533, T790M)
# Sequence (P00533 669-1210 T790M limits assumed): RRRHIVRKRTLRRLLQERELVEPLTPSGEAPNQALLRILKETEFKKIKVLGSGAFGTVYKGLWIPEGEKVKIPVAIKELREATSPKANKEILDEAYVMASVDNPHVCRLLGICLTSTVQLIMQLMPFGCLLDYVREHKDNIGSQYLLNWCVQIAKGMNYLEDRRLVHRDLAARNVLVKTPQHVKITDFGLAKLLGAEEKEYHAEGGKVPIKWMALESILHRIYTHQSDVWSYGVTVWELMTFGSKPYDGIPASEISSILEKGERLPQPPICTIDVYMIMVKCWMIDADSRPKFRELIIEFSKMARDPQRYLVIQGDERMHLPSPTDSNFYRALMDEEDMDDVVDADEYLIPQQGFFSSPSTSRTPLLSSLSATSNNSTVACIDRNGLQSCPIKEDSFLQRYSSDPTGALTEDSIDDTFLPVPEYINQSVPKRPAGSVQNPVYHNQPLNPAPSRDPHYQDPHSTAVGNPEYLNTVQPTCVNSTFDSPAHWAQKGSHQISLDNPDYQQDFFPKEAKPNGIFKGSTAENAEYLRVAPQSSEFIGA
# testMethodNotes: in vitro EGFR kinase inhibition assay
pIC50: −log10 of the molar value.
endpoint: pIC50

[[record]]
molecule = "Cc1ccc(NC(=O)Cn2c(=O)c3c(ncn3C)n(C)c2=O)cc1 [T-1-PMPA]"
testedon = "EGFR^T790M (Homo sapiens, UniProt P00533, T790M)"
endpoint = "pIC50"
datavalue = 6.25

